Test system: CEM/ADR5000 leukemia cells (P-glycoprotein-overexpressing)
Test: XTT cytotoxicity assay, multidrug-resistant cells
Format: cell-based, human
Conditions: multidrug-resistant CEM/ADR5000 cells, XTT; read-out: IC50 CEM/ADR5000
Readout Name: IC50

>>> test_value("CCC(C)OC1OC2OC3(C)CCC4C(C)CCC(C1C)C24OO3 (centres unmarked) [Compound 15, 10-(2′-Butyloxy)Dihydroartemisinin]")
"7.96 µM"
>>> test_value("CC1CCC2C(C)C(SCCN)OC3OC4(C)CCC1C32OO4 (centres unmarked) [Compound 16, 10-Dihydroartemisinyl Thioethylamine]")
"3.34 µM"
